- Tested on: S. pneumoniae
- Experimental Details: MIC broth microdilution, S. pneumoniae
- Type: cell-based
- Condition Description: Streptococcus pneumoniae; Table S3; read-out: MIC (µM) S. pneumoniae
Readout Label: MIC

Provide each entry's MIC from the list below.
1. O=C(C1=C(O)C(=O)N(Cc2c[nH]c3ccccc23)C1c1ccc(Cl)cc1)c1ccc(Br)cc1 (centres unmarked)
2. CCN1C(=O)C(O)=C(C(=O)c2ccc(Br)cc2)C1c1ccc(Cl)cc1 (centres unmarked)
3. O=C(C1=C(O)C(=O)N(Cc2cscn2)C1c1ccc(Cl)cc1)c1ccc(Br)cc1 (centres unmarked)
4. O=C(C1=C(O)C(=O)N(CCc2cc3ccccc3[nH]2)C1c1ccc(Cl)cc1)c1ccc(Br)cc1 (centres unmarked)
5. O=C(C1=C(O)C(=O)N(Cc2cc3cnccc3[nH]2)C1c1ccc(Cl)cc1)c1ccc(Br)cc1 (centres unmarked)
6. O=C(C1=C(O)C(=O)N(Cc2cc3cc(Cl)ccc3[nH]2)C1c1ccc(Cl)cc1)c1ccc(Br)cc1 (centres unmarked)

Data returned:
["25 µM", "50 µM", "> 100 µM", "50 µM", "> 100 µM", "6.25 µM"]

I would be grateful if you could provide MIC for each of the following entries.
1. O=C(C1=C(O)C(=O)N(CCc2c[nH]c3ccccc23)C1c1ccc(Cl)cc1)c1ccc(Br)cc1 (centres unmarked)
2. O=C(C1=C(O)C(=O)N(Cc2cccc(F)c2)C1c1ccc(Cl)cc1)c1ccc(Br)cc1 (centres unmarked)

Data returned:
1. 12.5 µM
2. 25 µM

* * *

Can you tell me pIC50 for the items I'm about to list?
- Measured Target: PBP3 of P. aeruginosa (PaPBP3) (Pseudomonas aeruginosa, UniProt G3XD46)
- Construct: P. aeruginosa PBP3 (amino acids 40 to 563); His-tag; made in house; host or cells: E. coli BL21 (DE3) Rosetta, plasmid pET41_PBP-3
- Sequence (G3XD46 40-563): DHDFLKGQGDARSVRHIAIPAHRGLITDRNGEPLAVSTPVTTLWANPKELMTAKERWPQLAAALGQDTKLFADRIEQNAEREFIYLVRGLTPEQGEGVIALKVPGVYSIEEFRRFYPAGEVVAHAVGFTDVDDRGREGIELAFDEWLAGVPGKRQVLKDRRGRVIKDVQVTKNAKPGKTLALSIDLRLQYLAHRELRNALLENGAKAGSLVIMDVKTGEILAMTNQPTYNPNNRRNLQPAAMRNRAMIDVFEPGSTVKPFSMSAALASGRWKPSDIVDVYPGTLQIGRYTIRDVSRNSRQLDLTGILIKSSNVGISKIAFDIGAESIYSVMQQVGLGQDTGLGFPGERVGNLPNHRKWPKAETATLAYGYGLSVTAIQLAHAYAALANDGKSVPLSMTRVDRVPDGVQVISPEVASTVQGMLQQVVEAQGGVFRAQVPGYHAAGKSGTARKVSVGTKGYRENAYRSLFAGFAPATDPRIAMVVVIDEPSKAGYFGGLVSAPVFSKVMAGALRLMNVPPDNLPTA
- Experimental Details: FP-Bocillin FL competition assay
- Assay type: binding
- Condition Description: 30 min preincubation before Bocillin FL, 37 °C; read-out: IC50 Determination with PaPBP3, FP-Bocillin FL Assay
Numbers only, as −log10 of the molar value.

Some solved cases for reference:
compound="COc1ccc(N2C(=O)C(O)=C(C(=O)c3ccc4c(c3)OCO4)C2c2ccc(Br)cc2)cc1 (centres unmarked)" measured_number=4.16
compound="O=C(C1=C(O)C(=O)N(CCc2cc3ccccc3[nH]2)C1c1ccc(Cl)cc1)c1ccc(Br)cc1 (centres unmarked)" measured_number=4.77
compound="O=C(C1=C(O)C(=O)N(Cc2cc3ccccc3[nH]2)C1c1ccc(Cl)cc1)c1ccc(Br)cc1 (centres unmarked)" measured_number=5.40
compound="O=C(C1=C(O)C(=O)N(CCc2c[nH]c3ccccc23)C1c1ccc(Cl)cc1)c1ccc(Br)cc1 (centres unmarked)" measured_number=5.40

Data request: Specify measured pIC50 for COc1ccc(C(=O)C2=C(O)C(=O)N(CCc3c(C)[nH]c4ccccc34)C2c2ccc(Cl)cc2)cc1 (centres unmarked) .
Data returned: 5.05

* * *

Please provide measured MIC for the entries that follow.
- System: S. pneumoniae
- Experimental Details: MIC broth microdilution, S. pneumoniae
- Assay type: cell-based
- Condition Description: Streptococcus pneumoniae; Table S3; read-out: MIC (µM) S. pneumoniae
Give bare numbers, in µM.

// known answers, use as guide
molecule="CCNC1=C(C(=O)c2ccc(Br)cc2)C(c2ccc(Cl)cc2)N(Cc2c[nH]c3ccccc23)C1=O (stereo not drawn)" readout_label=MIC display_unit=µM measured_number=25
molecule="O=C(C1=C(O)C(=O)N(Cc2ccco2)C1c1ccc(Cl)cc1)c1ccc(Br)cc1 (stereo not drawn)" readout_label=MIC display_unit=µM measured_number=50

Data request: Read the entry O=C(C1=C(O)C(=O)N(Cc2nc3ccccc3[nH]2)C1c1ccc(Cl)cc1)c1ccc(Br)cc1 (stereo not drawn) and write its reported MIC.
Data returned: 25

* * *

- Measured Target: PBP3 of P. aeruginosa (PaPBP3) (Pseudomonas aeruginosa)
- Construct: P. aeruginosa PBP3 (amino acids 40 to 563); His-tag; made in house; host or cells: E. coli BL21 (DE3) Rosetta, plasmid pET41_PBP-3
- Experimental Details: FP-Bocillin FL competition assay
- Format: binding
- Condition Description: 30 min preincubation before Bocillin FL, 37 °C; read-out: IC50 Determination with PaPBP3, FP-Bocillin FL Assay
- Procedure: Bocillin FL is a fluorescent penicillin V derivate used as a competitor for PBP inhibitors. Fluorescence polarisation (FP) experiments were carried out as described before. […] The fluorescence polarisation signal of free Bocillin FL was monitored in a Pherastar microplate reader (BMG Labtech, Ortenberg, Germany) in the polarisation mode with Ex/Em: 485/520 nm excitation and emission filters. […] Bocillin FL was diluted in Sorensen buffer and added to the reaction and directly measured for 30 min at 37 °C. […]
Readout Label: pIC50
Numbers only, as −log10 of the molar value.

Example entries begin here.
molecule="CCCCCCOc1cccc(N2C(=O)C(O)=C(C(=O)c3ccccc3)C2c2ccc(C(C)C)cc2)c1 (stereo not drawn) [Compound 2]" readout_label=pIC50 measured_number=4.77
molecule="O=C(C1=C(O)C(=O)N(Cc2c[nH]c3ccccc23)C1c1ccc(Cl)cc1)c1ccc(Br)cc1 (stereo not drawn) [Compound 39]" readout_label=pIC50 measured_number=4.96
molecule="COc1ccc(CN2C(=O)/C(=C(/C)O)C(=O)[C@@H]2COC(C)(C)C)c(OC)c1 [Compound 8]" readout_label=pIC50 measured_number=4.03

Attention now shifts to the item below.
Data request: Return reported pIC50. Input molecule: O=C(C1=C(O)C(=O)N(Cc2nc3ccccc3[nH]2)C1c1ccc(Cl)cc1)c1ccc(Br)cc1 (stereo not drawn) [Compound 38]
Data returned: 3.93

* * *

Exercise: for every item that follows, state its recorded Cytotoxicity CCRF-CEM.
- System: T-lymphoblast CCRF-CEM cell line
- Experimental Details: Cytotoxicity assay (PrestoBlue), CCRF-CEM
- Condition Description: CC50, 72 h

compound="CCN1C(=O)C(O)=C(C(=O)c2ccc(Br)cc2)C1c1ccc(Cl)cc1 (centres unmarked)" readout_label="Cytotoxicity CCRF-CEM" result="58 ± 6 µM"
compound="O=C(C1=C(O)C(=O)N(Cc2nc3ccccc3[nH]2)C1c1ccc(Cl)cc1)c1ccc(Br)cc1 (centres unmarked)" readout_label="Cytotoxicity CCRF-CEM" result=">100 µM"
compound="O=C(C1=C(O)C(=O)N(Cc2ccco2)C1c1ccc(Cl)cc1)c1ccc(Br)cc1 (centres unmarked)" readout_label="Cytotoxicity CCRF-CEM" result=">100 µM"

// batch mode: one Cytotoxicity CCRF-CEM value per listed entry
1. O=C(C1=C(O)C(=O)N(Cc2c[nH]c3ccccc23)C1c1ccc(Cl)cc1)c1ccc(Br)cc1 (centres unmarked)
2. O=C(C1=C(O)C(=O)N(Cc2cccc(F)c2)C1c1ccc(Cl)cc1)c1ccc(Br)cc1 (centres unmarked)
3. O=C(C1=C(N2CCOCC2)C(=O)N(Cc2cccc(F)c2)C1c1ccc(Cl)cc1)c1ccc(Br)cc1 (centres unmarked)

Data returned:
1: >100 µM; 2: >100 µM; 3: > 100 µM

Give Cytotoxicity CCRF-CEM for each listed item.
1. O=C(C1=C(O)C(=O)N(Cc2cc3ccccc3[nH]2)C1c1ccc(Cl)cc1)c1ccc(Br)cc1 (centres unmarked)
2. O=C(C1=C(O)C(=O)N(CCc2cc3ccccc3[nH]2)C1c1ccc(Cl)cc1)c1ccc(Br)cc1 (centres unmarked)

Data returned:
1: >100 µM; 2: 8 ± 6 µM

* * *

- Measured Target: PaPBP3 coated on a CM5 chip (Pseudomonas aeruginosa, UniProt G3XD46)
- Construct: P. aeruginosa PBP3 (amino acids 40 to 563); His-tag; made in house; host or cells: E. coli BL21 (DE3) Rosetta, plasmid pET41_PBP-3
- Sequence (G3XD46 40-563): as above
- Experimental Details: Surface plasmon resonance (SPR), steady-state analysis
- Format: binding
- Condition Description: 25 °C
Please go through the items and note down their Kd.
Answers are plain numbers, in µM.

Worked cases, Kd given:
compound="O=C(C1=C(O)C(=O)N(CCc2c[nH]c3ccccc23)C1c1ccc(Cl)cc1)c1ccc(Br)cc1 (stereo not drawn)" display_unit=µM measured_number=22.9
compound="O=C(C1=C(O)C(=O)N(Cc2nc3ccccc3[nH]2)C1c1ccc(Cl)cc1)c1ccc(Br)cc1 (stereo not drawn)" display_unit=µM measured_number=62.7

Data request: Input O=C(C1=C(O)C(=O)N(CCc2cc3ccccc3[nH]2)C1c1ccc(Cl)cc1)c1ccc(Br)cc1 (stereo not drawn) , output reported Kd.
Data returned: 454

* * *

- Measured Target: PBP3 of P. aeruginosa (PaPBP3) (Pseudomonas aeruginosa, UniProt G3XD46)
- Construct: P. aeruginosa PBP3 (amino acids 40 to 563); His-tag; made in house; host or cells: E. coli BL21 (DE3) Rosetta, plasmid pET41_PBP-3
- Experimental Details: S2dfluo fluorescence transpeptidase assay
- Type: biochemical
- Condition Description: 300 nM PaPBP3, 30 min preincubation, 37 °C; read-out: IC50 Determination with PaPBP3, S2dfluo Assay
- Description: The assays were carried out in the presence of 5% DMSO and 0.01% Triton X100 to avoid the formation of colloidal structures and adsorption of protein and/or compounds to surfaces. The Z’-factor determined for the assay was 0.73 ± 0.28, indicating the suitability and robustness of the assay for high throughput screening (HTS) (Figure 1B,C). […]
Param label: returns true when IC50 < 20 µM, returns false otherwise, including exact equality.

Known results for compounds:
compound="O=C(C1=C(O)C(=O)N(Cc2cc3cc(Cl)ccc3[nH]2)C1c1ccc(Cl)cc1)c1ccc(Br)cc1 (stereo not shown) [Compound 35]" label_value=true
compound="COc1ccc(C2=C(O)C(=O)N(c3nc(SCc4ccccc4)n[nH]3)C2c2ccccc2F)cc1 (stereo not shown) [Compound 7]" label_value=false
compound="O=C(C1=C(O)C(=O)N(Cc2ccco2)C1c1ccc(Cl)cc1)c1ccc(Br)cc1 (stereo not shown) [Compound 41]" label_value=false
compound="O=C(C1=C(O)C(=O)N(Cc2cccc(F)c2)C1c1ccc(Cl)cc1)c1ccc(Br)cc1 (stereo not shown) [Compound 1]" label_value=false
compound="COc1ccc(C(=O)C2=C(O)C(=O)N(CCc3c(C)[nH]c4ccccc34)C2c2ccc(Cl)cc2)cc1 (stereo not shown) [Compound 6]" label_value=false

Data request: Does the reported IC50 of CCNC1=C(C(=O)c2ccc(Br)cc2)C(c2ccc(Cl)cc2)N(Cc2cccc(F)c2)C1=O (stereo not shown) [Compound 43] stay below 20 µM?
Data returned: false

Data request: Just wondering, is IC50 of COc1ccc(N2C(=O)C(O)=C(C(=O)c3ccc4c(c3)OCO4)C2c2ccc(Br)cc2)cc1 (stereo not shown) [Compound 5] below 20 µM?
Data returned: false

Data request: I'd appreciate it if you could check whether CCOC(=O)c1ccc(N2C(=O)C(O)=C(S(=O)(=O)c3ccccc3)C2c2ccc(C(C)C)cc2)cc1 (stereo not shown) [Compound 4] has IC50 smaller than 20 µM.
Data returned: false

Data request: Item O=C(C1=C(O)C(=O)N(Cc2cc3ccccc3[nH]2)C1c1ccc(Cl)cc1)c1ccc(Br)cc1 (stereo not shown) [Compound 34] : IC50 beneath 20 µM, strictly?
Data returned: true

Data request: Hi there! Is IC50 for CSc1ccc(C2c3c(oc4cc(C)cc(C)c4c3=O)C(=O)N2CC2CCCO2)cc1 (stereo not shown) [Compound 9] below 20 µM, do you know?
Data returned: false

Data request: Here's an entry: CCCCCCOc1cccc(N2C(=O)C(O)=C(C(=O)c3ccccc3)C2c2ccc(C(C)C)cc2)c1 (stereo not shown) [Compound 2] . Is its IC50 below 20 µM?
Data returned: true
